pIC50: −log10 of the molar value.
This section lists pIC50 readings for UniProtKB Q99685.
Sequence (Q99685 whole entry, species assumed): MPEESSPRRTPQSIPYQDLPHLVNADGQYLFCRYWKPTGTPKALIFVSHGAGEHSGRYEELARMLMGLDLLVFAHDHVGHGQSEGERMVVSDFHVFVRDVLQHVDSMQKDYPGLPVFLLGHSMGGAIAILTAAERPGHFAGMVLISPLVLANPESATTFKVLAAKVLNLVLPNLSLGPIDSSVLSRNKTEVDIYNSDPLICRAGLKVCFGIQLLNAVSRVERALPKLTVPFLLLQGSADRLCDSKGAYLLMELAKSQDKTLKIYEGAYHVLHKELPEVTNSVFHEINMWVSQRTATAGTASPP
endpoint: pIC50

O=C(N1CC2(CC(Cn3ccc(C(F)(F)F)n3)C2)C1)N1CC2(CC(c3nc(C4CC4)n[nH]3)C2)C1 | 9.15
CC(C)(C)c1nnc(CN2CC3(C2)CN(C(=O)N2CC4(CC(c5nc(C6CC6)n[nH]5)C4)C2)C3)s1 | 8.01
O=C(N1CC(C23CC(Cn4cc(C(F)(F)F)cn4)(C2)C3)C1)N1CC2(CC(c3nc(C4CC4)n[nH]3)C2)C1 | 9.80
O=C(N1CC2(CCN(Cc3cc(C(F)(F)F)[nH]n3)CC2)C1)N1CC2(CC(c3nc(C4CC4)n[nH]3)C2)C1 | 8.15
